Listing of entries alongside the reported pKi.
target: c-Abl (Homo sapiens, UniProt P00519)
Sequence (P00519 229-512): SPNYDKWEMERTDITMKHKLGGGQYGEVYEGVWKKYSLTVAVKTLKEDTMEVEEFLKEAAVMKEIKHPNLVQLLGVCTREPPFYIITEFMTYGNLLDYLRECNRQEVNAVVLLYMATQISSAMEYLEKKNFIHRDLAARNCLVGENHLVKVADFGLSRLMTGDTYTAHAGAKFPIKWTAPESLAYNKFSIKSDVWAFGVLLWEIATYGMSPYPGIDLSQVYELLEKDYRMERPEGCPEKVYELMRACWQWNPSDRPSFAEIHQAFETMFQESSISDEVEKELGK
pKi: −log10 of the molar value.

[[record]]
query_smiles = "Cc1nc(Nc2ncc(C(=O)Nc3cc(NC(=O)c4cccc(C(F)(F)F)c4)ccc3C)s2)cc(N2CCN(CCO)CC2)n1"
target_under_test = "c-Abl (Homo sapiens, UniProt P00519)"
result = "> 9.00"


Param item: Cc1nc(Nc2ncc(C(=O)Nc3cccc(NC(=O)c4cccc(C(F)(F)F)c4)c3)s2)cc(N2CCN(CCO)CC2)n1 ; param system: c-Abl (Homo sapiens, UniProt P00519); output pKi: > 9.00

---

tested on: 124 non-mutant kinase domain constructs; format: binding; details: 500 nM inhibitor, 124 nonmutant kinases
Value type: S35 (fraction of kinases with <35% of control activity)
Keep it simple and answer with nothing but the number.

[[record]]
molecule = "Cc1nc(Nc2ncc(C(=O)Nc3c(C)cccc3Cl)s2)cc(N2CCN(CCO)CC2)n1 [Dasatinib, reference compound]"
target_under_test = "124 non-mutant kinase domain constructs"
readout_number = 0.21


We now examine a further molecule.
Per the records, this molecule ( Cc1nc(Nc2ncc(C(=O)Nc3ccc(Oc4ccccc4)cc3C)s2)cc(N2CCN(CCO)CC2)n1 ) has S35 (fraction of kinases with <35% of control activity) equal to 0.16

---

test system: 124 non-mutant kinase domain constructs; assay type: binding; settings: 500 nM inhibitor, 124 nonmutant kinases
Listing of entries alongside the reported S35 (fraction of kinases with <35% of control activity).
Keep it simple and answer with nothing but the number.

Use the examples below as a reference point.
[[record]]
compound = "Cc1nc(Nc2ncc(C(=O)Nc3ccc(Oc4ccccc4)cc3)s2)cc(N2CCN(CCO)CC2)n1 [DAS-CHO-I]"
target_under_test = "124 non-mutant kinase domain constructs"
readout_number = 0.05

[[record]]
compound = "Cc1nc(Nc2ncc(C(=O)Nc3cc(NC(=O)c4cccc(C(F)(F)F)c4)ccc3C)s2)cc(N2CCN(CCO)CC2)n1 [DAS-DFGO-II]"
target_under_test = "124 non-mutant kinase domain constructs"
readout_number = 0.20


We now examine a further compound.
Per the records, this compound ( Cc1nc(Nc2ncc(C(=O)Nc3cccc(NC(=O)c4cccc(C(F)(F)F)c4)c3)s2)cc(N2CCN(CCO)CC2)n1 [DAS-DFGO-I] ) has S35 (fraction of kinases with <35% of control activity) equal to 0.24
